Where these numbers come from: the supplement of paper PMC8149375

System: UO-31
Assay: minimum viability across doses, drug alone, relative to DMSO (fraction); higher = less growth inhibition
Details: treatment: drug alone; 5 days
Below, each entry is listed with its recorded minimum viability across doses.
Write the value as a bare number.

Note to self: minimum viability across doses recorded for "CNC(=O)Nc1ccc(-c2nc(N3CC4CCC(C3)O4)c3cnn(C4CCC5(CC4)OCCO5)c3n2)cc1" was 0.00242

Note to self: minimum viability across doses recorded for "CCS(=O)(=O)N1CC(CC#N)(n2cc(-c3ncnc4[nH]ccc34)cn2)C1" was 1.11

Note to self: minimum viability across doses recorded for O=C(O)c1ccc2c(c1)nc(Nc1cccc(Cl)c1)c1ccncc12 [cx-4945 (Silmitasertib)] was 0.541

Note to self: minimum viability across doses recorded for CS(=O)(=O)N1CCN(Cc2cc3nc(-c4cccc5[nH]ncc45)nc(N4CCOCC4)c3s2)CC1 [GDC-0941] was 0.227

* * *

Below, each entry is listed with its recorded GI50, drug alone.
Tested on: A498
Test: GI50, drug alone; higher = less potent
Conditions: treatment: drug alone; 5 days

| compound | GI50, drug alone |
| --- | --- |
| COc1ccc2c(OCc3nnc4ccc(-c5ccccc5)nn34)ccnc2c1 | > 10 µM |
| FC(F)c1nc2ccccc2n1-c1nc(N2CCOCC2)nc(N2CCOCC2)n1 | 2.17 µM |
| COc1cc(Nc2c(C#N)cnc3cc(OCCCN4CCN(C)CC4)c(OC)cc23)c(Cl)cc1Cl [Bosutinib (SKI-606)] | 5.05 µM |
| COc1cccc(-c2cc(=O)c3ccccc3o2)c1N | > 10 µM |
| COc1cc2ncnc(Nc3ccc(O)c(Br)c3)c2cc1OC | > 10 µM |
| CO[C@H]1C[C@@H]2CC[C@@H](C)[C@@](O)(O2)C(=O)C(=O)N2CCCC[C@H]2C(=O)O[C@H]([C@H](C)C[C@@H]2CC[C@@H](OCCO)[C@H](OC)C2)CC(=O)[C@H](C)/C=C(\C)[C@@H](O)[C@@H](OC)C(=O)[C@H](C)C[C@H](C)/C=C/C=C/C=C/1C [Everolimus (RAD001)] | > 10 µM |

Note to self: GI50, drug alone recorded for "CCS(=O)(=O)N1CC(CC#N)(n2cc(-c3ncnc4[nH]ccc34)cn2)C1" was > 10 µM

* * *

Test system: 786-O
Test: GI50, drug alone; higher = less potent
Conditions: treatment: drug alone; 5 days
measure: GI50, drug alone

| compound | GI50, drug alone |
| --- | --- |
| Nc1cccc2c1CN(C1CCC(=O)NC1=O)C2=O (configuration not stated) [Lenalidomide (Revlimid)] | < 0.003 µM |
| Cl.Cl.Clc1ccc(Nc2nnc(Cc3ccncc3)c3ccccc23)cc1 [Vatalanib dihydrochloride (PTK787)] | > 10 µM |
| Cc1[nH]c(/C=C2/C(=O)Nc3ccc(S(=O)(=O)N(C)c4cccc(Cl)c4)cc32)c(C)c1C(=O)N1CCN(C)CC1 | 5.22 µM |
| COc1cc2c(Nc3ccc(NC(=O)c4ccccc4)cc3)ncnc2cc1OCCCN1CCOCC1 | 2 µM |
| CC[C@H](CO)Nc1nc(NCc2ccccc2)c2ncn(C(C)C)c2n1 [Roscovitine (Seliciclib, CYC202)] | 4.97 µM |
| COC[C@H]1OC(=O)c2coc3c2[C@@]1(C)C1=C(C3=O)[C@@H]2CCC(=O)[C@@]2(C)C[C@@H]1OC(C)=O | 0.0493 µM |

Would you kindly look at the next entry?
Note to self: GI50, drug alone recorded for "Nc1nccc(Oc2ccc(NC(=O)c3c[nH]cc(-c4ccc(F)cc4)c3=O)cc2F)c1Cl" was > 10 µM
